Data credit: patent US20040209914A1

- experimental_target: Recombinant human MMP-13 (Homo sapiens, UniProt P45452)
- Construct: made in house; host or cells: baculovirus / insect cells
- assay_text: biochemical
- test_settings: fluorogenic MCA-peptide substrate, pH 7.5, room temperature; read-out: MMP-13 IC50
Reported IC50 by item:
recorded_endpoint: IC50 (nM)

INSERT INTO assay_data (compound_structure_string, result_number) VALUES
  ('COCCN1CCC(C(=O)NO)(S(=O)(=O)c2ccc(N3CCC(C(=O)c4ccc(OC5CCCC5)cc4)CC3)cc2)CC1', 1.4),
  ('CCc1ccc(C(=O)C2CCN(c3ccc(S(=O)(=O)C4(C(=O)NO)CCN(CCOC)CC4)cc3)CC2)cc1', 0.2),
  ('O=C(c1ccc(CCC2CCCC2)cc1)C1CCN(c2ccc(S(=O)(=O)C3(C(=O)NO)CCN(C4CC4)CC3)cc2)CC1', 11.7),
  ('CCCc1ccc(C(=O)C2CCN(c3ccc(S(=O)(=O)C4(C(=O)NO)CCN(S(C)(=O)=O)CC4)cc3)CC2)cc1', 85.9);
